List of EC50 (nM) at glucagon receptor values.
Molecular target: glucagon receptor (UniProt P47871 26-477, limits assumed)
Sequence (P47871 26-477 limits assumed): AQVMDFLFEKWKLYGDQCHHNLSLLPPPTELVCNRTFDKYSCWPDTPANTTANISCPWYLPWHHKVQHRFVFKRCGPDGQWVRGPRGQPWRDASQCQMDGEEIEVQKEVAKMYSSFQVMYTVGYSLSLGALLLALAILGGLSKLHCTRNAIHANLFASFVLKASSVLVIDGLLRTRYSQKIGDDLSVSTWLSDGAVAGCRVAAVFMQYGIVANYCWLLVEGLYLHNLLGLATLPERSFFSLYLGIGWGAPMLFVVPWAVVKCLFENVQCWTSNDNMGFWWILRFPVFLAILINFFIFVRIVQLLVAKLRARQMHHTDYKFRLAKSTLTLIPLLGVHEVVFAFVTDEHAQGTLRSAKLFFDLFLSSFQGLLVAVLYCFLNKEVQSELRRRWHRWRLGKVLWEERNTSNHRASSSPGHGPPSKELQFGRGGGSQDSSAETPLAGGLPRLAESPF
Test: cell-based or functional assay
Square brackets hold non-standard residues; d marks the D form. Ends that are not written are not given here. 40K‑TE PEG = 40 kDa PEG covalently bound via thioether, formed by reaction of the free thiol of the peptide (Cys side chain) with an iodoacetic-functionalized PEG; Aib = CC(C)(N)C(=O)O
Measured parameter: EC50 (nM) at glucagon receptor

>>> experimental_value("H[Aib]QGTFTSDYSKYLDEKRA[Aib]EFVC(40K‑TE PEG)WLL[Aib]GGPSSGAPPPS-NH2 [peptide of SEQ ID NO: 51]")
2.04
>>> experimental_value("H[Aib]QGTFTSDYSKYLDEKRA[Aib]EFV[Aib]WLLC(40K‑TE PEG)T-NH2 [peptide of SEQ ID NO: 42]")
1.01
>>> experimental_value("H[Aib]QGTFTSDYSKYLDEKRA[Aib]EFVC(40K‑TE PEG)WLLDE-NH2 [peptide of SEQ ID NO: 16]")
0.563
>>> experimental_value("H[Aib]QGTFTSDYSKYLDERRA[Aib]EFVC(40K‑TE PEG)WLLDT-NH2 [peptide of SEQ ID NO: 14]")
0.365
